Where do these numbers come from? They come from paper PMC7531004.

- Tested on: Streptococcus pyogenes SSI-9
- test-protocol: Antibacterial activity assay of bead-derived peptides (three concentrations)
- Format: cell-based
- Parameters: key: +++: inhibition by the 640-fold diluted peptide solution; ++: inhibition by the 160-fold diluted solution; +: inhibition by the 40-fold diluted solution; -: no inhibition
- measurement-conditions: S. pyogenes, bead-derived peptide solution, three concentrations
Where a SMILES comes first, the peptide text is derived from it. [ ]: non-standard residue; d: D form. The star is where a group is joined. NHCH2CH2OH = OCCN*; For = O=C*
endpoint: antibacterial activity

CC(C)C[C@@H](NC(=O)[C@H](C)NC(=O)[C@H](NC(=O)[C@H](C)NC(=O)CNC(=O)[C@@H](NC=O)C(C)C)[C@H](C)O)C(=O)N[C@H](C(=O)N[C@H](CC(C)C)C(=O)N[C@@H](Cc1c[nH]c2ccccc12)C(=O)N[C@H](CC(C)C)C(=O)N[C@@H](Cc1c[nH]c2ccccc12)C(=O)N[C@H](CC(C)C)C(=O)N[C@@H](Cc1c[nH]c2ccccc12)C(=O)N[C@H](CC(C)C)C(=O)N[C@@H](Cc1c[nH]c2ccccc12)C(=O)NCCO)C(C)C [compound 5618] (For-VGA[dT]A[dL]V[dL]W[dL]W[dL]W[dL]W-NHCH2CH2OH) = -
CC(C)C[C@@H](NC(=O)[C@H](C)NC(=O)CNC(=O)[C@@H](NC=O)C(C)C)C(=O)N[C@@H](C)C(=O)N[C@@H](C(=O)N[C@H](C(=O)N[C@H](CC(C)C)C(=O)N[C@@H](Cc1c[nH]c2ccccc12)C(=O)N[C@@H](C(=O)N[C@@H](Cc1c[nH]c2ccccc12)C(=O)N[C@@H](C(=O)N[C@@H](Cc1c[nH]c2ccccc12)C(=O)N[C@@H](C(=O)N[C@@H](Cc1c[nH]c2ccccc12)C(=O)NCCO)C(C)C)C(C)C)C(C)C)C(C)C)[C@H](C)O [compound 3733] (For-VGA[dL]A[dT]V[dL]W[dV]W[dV]W[dV]W-NHCH2CH2OH) = -
